test: Inhibition of 15-lipoxygenase form soybean; design: species or system Glycine max
// assign met if IC50 falls strictly below 40 µM, else not met (ties count as not met)

[
  {
    "COMPOUND": "COc1ccc(CC(=O)OC(C)(C)C)cc1",
    "CLASS_NAME": "met"
  },
  {
    "COMPOUND": "CCC(=O)Cc1ccc(OC)cc1",
    "CLASS_NAME": "met"
  },
  {
    "COMPOUND": "CCCCCOC(=O)Cc1ccc(OC)cc1",
    "CLASS_NAME": "met"
  },
  {
    "COMPOUND": "COc1ccc(CC(=O)OC2CCCC2)cc1",
    "CLASS_NAME": "not met"
  },
  {
    "COMPOUND": "COc1ccc(CC(=O)OC2CCCCC2)cc1",
    "CLASS_NAME": "not met"
  },
  {
    "COMPOUND": "C=CCc1ccc(OC)c(OC)c1",
    "CLASS_NAME": "not met"
  },
  {
    "COMPOUND": "CCOC(=O)Cc1ccc(OC)cc1",
    "CLASS_NAME": "met"
  },
  {
    "COMPOUND": "CCCCCCOC(=O)Cc1ccc(OC)cc1",
    "CLASS_NAME": "met"
  },
  {
    "COMPOUND": "C=CCc1ccc(OC)cc1",
    "CLASS_NAME": "not met"
  },
  {
    "COMPOUND": "CCCOC(=O)Cc1ccc(OC)cc1",
    "CLASS_NAME": "met"
  },
  {
    "COMPOUND": "C=C(C)Cc1ccc(OC)cc1",
    "CLASS_NAME": "not met"
  },
  {
    "COMPOUND": "COC(=O)Cc1ccc(OC)cc1",
    "CLASS_NAME": "not met"
  },
  {
    "COMPOUND": "CCCCOC(=O)Cc1ccc(OC)cc1",
    "CLASS_NAME": "met"
  },
  {
    "COMPOUND": "CCC(C)OC(=O)Cc1ccc(OC)cc1 (stereo not given)",
    "CLASS_NAME": "met"
  },
  {
    "COMPOUND": "COc1ccc(CC(=O)OCC(C)C)cc1",
    "CLASS_NAME": "not met"
  }
]

###

Collected pIC50 values appear next to each entry.
test: Inhibition of 15-lipoxygenase form soybean; set-up: species or system Glycine max
pIC50: −log10 of the molar value.

[
  {
    "MOLECULE": "C=CCc1ccc(O)c(OC)c1 [EUGENOL]",
    "pIC50": 4.42
  },
  {
    "MOLECULE": "COc1ccc(CC(=O)OC(C)C)cc1",
    "pIC50": 4.46
  },
  {
    "MOLECULE": "C=C(CC)Cc1ccc(OC)cc1",
    "pIC50": 3.84
  }
]

###

assay: Inhibition of human recombinant 15-lipoxygenase a
# IC50 per record follows
MEASUREMENT_TYPE: IC50 (µM)

[
  {
    "TEST_SMILES": "CCOC(=O)Cc1ccc(OC)cc1",
    "MEASUREMENT_TYPE": "IC50",
    "UNIT": "µM",
    "EXPERIMENTAL_RESULT": 56.7
  },
  {
    "TEST_SMILES": "CCCCCOC(=O)Cc1ccc(OC)cc1",
    "MEASUREMENT_TYPE": "IC50",
    "UNIT": "µM",
    "EXPERIMENTAL_RESULT": 30.9
  }
]
